- Assayed System: PAK4 (Homo sapiens)
- Sequence (O96013 whole entry): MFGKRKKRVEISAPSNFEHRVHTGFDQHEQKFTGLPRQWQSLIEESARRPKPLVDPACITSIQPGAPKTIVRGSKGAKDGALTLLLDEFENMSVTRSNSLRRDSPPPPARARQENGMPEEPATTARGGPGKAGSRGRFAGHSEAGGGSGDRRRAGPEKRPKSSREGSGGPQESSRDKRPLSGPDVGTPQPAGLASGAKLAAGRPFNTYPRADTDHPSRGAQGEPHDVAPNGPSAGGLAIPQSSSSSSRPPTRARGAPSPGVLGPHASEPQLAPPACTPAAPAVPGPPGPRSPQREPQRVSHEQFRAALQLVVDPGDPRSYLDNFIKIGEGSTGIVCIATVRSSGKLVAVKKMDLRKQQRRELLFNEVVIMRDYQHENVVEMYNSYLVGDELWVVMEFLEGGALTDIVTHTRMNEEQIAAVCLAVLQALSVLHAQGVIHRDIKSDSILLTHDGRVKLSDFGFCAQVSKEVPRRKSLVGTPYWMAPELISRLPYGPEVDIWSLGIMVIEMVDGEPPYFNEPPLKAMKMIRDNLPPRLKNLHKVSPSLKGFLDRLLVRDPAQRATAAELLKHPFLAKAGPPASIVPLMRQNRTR
- Stated Conditions: supplement CSV

{"Compound": "NC(=O)c1cnc(N2CCC[C@H](N)C2)nc1Nc1cc(C(F)(F)F)cc(C(F)(F)F)c1", "PAK4 Tm": "3.17 0C"}
{"Compound": "CC(C)(C)c1cc(Nc2nc(N3CCC[C@H](N)C3)ncc2C(N)=O)cc(C(C)(C)C)c1", "PAK4 Tm": "-0.72 0C"}
{"Compound": "NC(=O)c1cnc(N2CCC[C@H](N)C2)nc1Nc1cccc(C(F)(F)F)c1", "PAK4 Tm": "4.73 0C"}
{"Compound": "NC(=O)c1cnc(N2CCC[C@H](N)C2)nc1Nc1cccc(-c2ccccc2)c1", "PAK4 Tm": "5.67 0C"}
{"Compound": "CC(C)c1cc(Nc2nc(N3CCC[C@H](N)C3)ncc2C(N)=O)cc(C(C)C)n1", "PAK4 Tm": "3.31 0C"}
{"Compound": "CC(C)(C)c1cccc(Nc2nc(N3CCC[C@H](N)C3)ncc2C(N)=O)c1", "PAK4 Tm": "1.24 0C"}
{"Compound": "NCCNc1ncc(C(N)=O)c(Nc2cccc(C(F)(F)F)c2)n1 [Compound 1, reference compound]", "PAK4 Tm": "4.62 0C"}
{"Compound": "CC(C)(C#N)c1cccc(Nc2nc(N3CCC[C@H](N)C3)ncc2C(N)=O)c1", "PAK4 Tm": "1.98 0C"}
{"Compound": "CN(CCN)c1ncc(C(N)=O)c(Nc2cccc(C(F)(F)F)c2)n1", "PAK4 Tm": "2.1 0C"}
{"Compound": "CC(C)c1cc(Nc2nc(N3CCC[C@H](N)C3)ncc2C(N)=O)cc(C(C)C)c1", "PAK4 Tm": "4.76 0C"}
{"Compound": "CS(=O)(=O)c1cccc(Nc2nc(N3CCC[C@H](N)C3)ncc2C(N)=O)c1", "PAK4 Tm": "3.75 0C"}

* * *

- Procedure Text: in vitro
- Stated Conditions: rat, plasma
Result Type: fraction unbound

{"Compound": "CC(C)c1cc(Nc2nc(N3CCC[C@H](N)C3)ncc2C(N)=O)cc(C(C)C)n1 [Compound 19]", "Result": 0.08}

* * *

- Procedure Text: in vivo
- Stated Conditions: male, Crl:CD Sprague-Dawley, rat, iv, 2 mg/kg

{"Compound": "CC(C)c1cc(Nc2nc(N3CCC[C@H](N)C3)ncc2C(N)=O)cc(C(C)C)n1 [Compound 19]", "clearance / mL/min/kg": 36.5}

* * *

- Tested on: kinase panel (468 Assays Tested)
- Procedure Text: Pan-kinome selectivity, competitive binding assay (KINOMEscan)
- Stated Conditions: 1 μM
Let's look at some compounds and their measured S-Score(35).

{"Compound": "CC(C)c1cc(Nc2nc(N3CCC[C@H](N)C3)ncc2C(N)=O)cc(C(C)C)n1 [Compound 19]", "Assayed System": "kinase panel (468 Assays Tested)", "S-Score(35)": 0.03}
{"Compound": "CC(C)(C#N)c1cc(Nc2nc(N3CCC[C@H](N)C3)ncc2C(N)=O)cc(C(C)(C)C#N)c1 [Compound 18]", "Assayed System": "kinase panel (468 Assays Tested)", "S-Score(35)": 0.03}
{"Compound": "NC(=O)c1cnc(N2CCC[C@H](N)C2)nc1Nc1cccc(C(F)(F)F)c1 [Compound 8]", "Assayed System": "kinase panel (468 Assays Tested)", "S-Score(35)": 0.12}
{"Compound": "CC(C)(C)c1cc(Nc2nc(N3CCC[C@H](N)C3)ncc2C(N)=O)cc(C(C)(C)C)c1 [Compound 14]", "Assayed System": "kinase panel (468 Assays Tested)", "S-Score(35)": 0.01}

* * *

Some compounds, each annotated with its measured CAMK1G Tm.
- Assayed System: CAMK1G (Homo sapiens, UniProt Q96NX5)
- Sequence (Q96NX5 whole entry): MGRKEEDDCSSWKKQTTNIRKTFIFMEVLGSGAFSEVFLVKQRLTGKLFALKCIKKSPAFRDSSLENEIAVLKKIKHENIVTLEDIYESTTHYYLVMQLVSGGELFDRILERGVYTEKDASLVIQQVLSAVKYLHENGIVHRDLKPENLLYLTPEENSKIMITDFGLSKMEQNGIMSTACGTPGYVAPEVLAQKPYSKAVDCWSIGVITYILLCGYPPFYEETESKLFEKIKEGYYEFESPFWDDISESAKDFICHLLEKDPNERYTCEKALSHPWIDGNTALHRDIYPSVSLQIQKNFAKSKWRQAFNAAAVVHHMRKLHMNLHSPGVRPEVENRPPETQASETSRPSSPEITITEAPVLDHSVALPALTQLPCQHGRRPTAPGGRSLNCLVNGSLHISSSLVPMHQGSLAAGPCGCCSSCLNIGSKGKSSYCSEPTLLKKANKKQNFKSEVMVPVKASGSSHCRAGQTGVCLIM
- Stated Conditions: supplement CSV

{"Compound": "NC(=O)c1cnc(N2CCC[C@H](N)C2)nc1Nc1cccc(C(F)(F)F)c1", "CAMK1G Tm": "9.55 0C"}
{"Compound": "NC(=O)c1cnc(N2CCCC(N)C2)nc1Nc1cccc(C(F)(F)F)c1 (racemic)", "CAMK1G Tm": "8.82 0C"}
{"Compound": "CC(C)c1cc(Nc2nc(N3CCC[C@H](N)C3)ncc2C(N)=O)cc(C(C)C)n1", "CAMK1G Tm": "16.35 0C"}
{"Compound": "CNC(=O)c1cnc(NCCN)nc1Nc1cccc(C(F)(F)F)c1 [Compound 2, reference compound]", "CAMK1G Tm": "0.15 0C"}
{"Compound": "NC(=O)c1cnc(N2CCC[C@H](N)C2)nc1Nc1cccc(-c2ccccc2)c1", "CAMK1G Tm": "12.19 0C"}
{"Compound": "NCCNc1ncc(C(N)=O)c(Nc2cccc(C(F)(F)F)c2)n1 [Compound 1, reference compound]", "CAMK1G Tm": "4.11 0C"}
{"Compound": "CC(C)(C#N)c1cccc(Nc2nc(N3CCC[C@H](N)C3)ncc2C(N)=O)c1", "CAMK1G Tm": "6.35 0C"}
{"Compound": "NC(=O)c1cnc(N2CCC[C@H](N)C2)nc1Nc1cc(C(F)(F)F)cc(C(F)(F)F)c1", "CAMK1G Tm": "16.18 0C"}

* * *

- Assayed System: CAMK1G (Homo sapiens, UniProt Q96NX5)
- Stated Conditions: supplement CSV
Property: CAMK1G Tm; scope: individual molecules

{"Smi": "CS(=O)(=O)c1cccc(Nc2nc(N3CCC[C@H](N)C3)ncc2C(N)=O)c1", "CAMK1G Tm": "7.26 0C"}
{"Smi": "CNCCN(C)c1ncc(C(N)=O)c(Nc2cccc(C(F)(F)F)c2)n1", "CAMK1G Tm": "1.13 0C"}
{"Smi": "CC(C)(C)c1cc(Nc2nc(N3CCC[C@H](N)C3)ncc2C(N)=O)cc(C(C)(C)C)c1", "CAMK1G Tm": "10.22 0C"}
{"Smi": "CN(C)CCN(C)c1ncc(C(N)=O)c(Nc2cccc(C(F)(F)F)c2)n1", "CAMK1G Tm": "2.78 0C"}
{"Smi": "NC(=O)c1cnc(N2CCC[C@@H](N)C2)nc1Nc1cccc(C(F)(F)F)c1", "CAMK1G Tm": "6.58 0C"}
{"Smi": "CC(C)c1cc(Nc2nc(N3CCC[C@H](N)C3)ncc2C(N)=O)cc(C(C)C)c1", "CAMK1G Tm": "10.33 0C"}
{"Smi": "CN(CCN)c1ncc(C(N)=O)c(Nc2cccc(C(F)(F)F)c2)n1", "CAMK1G Tm": "4.91 0C"}
{"Smi": "CC(C)(C)c1cccc(Nc2nc(N3CCC[C@H](N)C3)ncc2C(N)=O)c1", "CAMK1G Tm": "9.24 0C"}

* * *

- Procedure Text: in vitro
- Stated Conditions: human, plasma
Result Type: fraction unbound

{"Molecule": "CC(C)c1cc(Nc2nc(N3CCC[C@H](N)C3)ncc2C(N)=O)cc(C(C)C)n1 [Compound 19]", "Result": 0.11}

* * *

- Assayed System: UniProt Q16566
- Sequence (Q16566 whole entry): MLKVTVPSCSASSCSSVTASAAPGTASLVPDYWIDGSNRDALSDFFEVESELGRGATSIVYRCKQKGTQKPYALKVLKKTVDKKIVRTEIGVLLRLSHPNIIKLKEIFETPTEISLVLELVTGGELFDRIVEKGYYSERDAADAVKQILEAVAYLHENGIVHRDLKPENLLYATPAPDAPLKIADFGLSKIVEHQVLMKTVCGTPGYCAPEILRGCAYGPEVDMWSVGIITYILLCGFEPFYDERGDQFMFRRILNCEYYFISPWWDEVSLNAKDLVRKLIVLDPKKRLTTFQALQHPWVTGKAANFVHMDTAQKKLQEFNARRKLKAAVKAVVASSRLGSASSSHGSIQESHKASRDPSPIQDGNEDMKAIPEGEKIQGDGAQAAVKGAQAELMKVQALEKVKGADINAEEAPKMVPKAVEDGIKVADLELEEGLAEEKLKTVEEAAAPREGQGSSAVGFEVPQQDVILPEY
- Stated Conditions: supplement CSV

{"Compound": "CC(C)c1cc(Nc2nc(N3CCC[C@H](N)C3)ncc2C(N)=O)cc(C(C)C)c1 [Compound 15]", "CAMK4 Tm": "6.46 0C"}
{"Compound": "CC(C)(C#N)c1cccc(Nc2nc(N3CCC[C@H](N)C3)ncc2C(N)=O)c1 [Compound 13]", "CAMK4 Tm": "4.38 0C"}
{"Compound": "NC(=O)c1cnc(N2CCC[C@H](N)C2)nc1Nc1cc(C(F)(F)F)cc(C(F)(F)F)c1 [Compound 9]", "CAMK4 Tm": "7.06 0C"}
{"Compound": "CS(=O)(=O)c1cccc(Nc2nc(N3CCC[C@H](N)C3)ncc2C(N)=O)c1 [Compound 11]", "CAMK4 Tm": "4.49 0C"}
{"Compound": "NCCNc1ncc(C(N)=O)c(Nc2cccc(C(F)(F)F)c2)n1 [Compound 1, reference compound]", "CAMK4 Tm": "1.34 0C"}
{"Compound": "CC(C)(C)c1cccc(Nc2nc(N3CCC[C@H](N)C3)ncc2C(N)=O)c1 [Compound 10]", "CAMK4 Tm": "3.78 0C"}
{"Compound": "CC(C)(C)c1cc(Nc2nc(N3CCC[C@H](N)C3)ncc2C(N)=O)cc(C(C)(C)C)c1 [Compound 14]", "CAMK4 Tm": "6.39 0C"}
{"Compound": "NC(=O)c1cnc(N2CCC[C@H](N)C2)nc1Nc1cccc(-c2ccccc2)c1 [Compound 12]", "CAMK4 Tm": "4.98 0C"}

* * *

- Procedure Text: in vitro
- Stated Conditions: mouse, plasma
Result Type: fraction unbound

{"Smi": "CC(C)c1cc(Nc2nc(N3CCC[C@H](N)C3)ncc2C(N)=O)cc(C(C)C)n1", "Quantitative Readout": 0.06}
